system-name: MDM2 (Homo sapiens, UniProt Q00987)
Sequence (Q00987 1-125): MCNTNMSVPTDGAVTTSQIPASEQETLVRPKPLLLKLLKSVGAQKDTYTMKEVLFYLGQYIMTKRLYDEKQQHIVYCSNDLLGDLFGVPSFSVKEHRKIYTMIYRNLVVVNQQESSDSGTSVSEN
assay-overview: Competitive fluorescence polarization assay for MDM2
Assay type: binding
reported-conditions: competitive FP assay, MDM2; read-out: IC50 (MDM2)
Where a SMILES comes first, the peptide text is derived from it. Bridges are numbered along the chain shown (N, C = ends). [ ]: non-standard residue; d: D form. R8 = C=CCCCCCC[C@@](C)(N)C(=O)O; S5 = C=CCCC[C@](C)(N)C(=O)O
result-type: IC50

- CC[C@H](C)[C@H](NC(=O)[C@H](C)NC(=O)[C@H](C)NC(=O)[C@]1(C)CCCC=CCCCCCC[C@@](C)(NC(=O)[C@H](Cc2ccccc2)NC(=O)[C@@H](NC(=O)[C@H](CC(C)C)NC(C)=O)[C@@H](C)O)C(=O)N[C@@H](C)C(=O)N[C@@H](Cc2c[nH]cn2)C(=O)N[C@@H](Cc2c[nH]c3ccccc23)C(=O)N[C@@H](C)C(=O)N[C@@H](CCC(N)=O)C(=O)N[C@@H](CC(C)C)C(=O)N1)C(=O)N[C@H](C)C(N)=O [compound 170] (Ac-LTF[R8]AHWAQL[S5]AAI[dA]-NH2; staple 4-11): < 10 nM

Reference for the values: patent US8927500B2
